Below: a set of entries, each annotated with reported inhibition.
# Test Target: Ribosomal protein S6 kinase alpha-5 (Homo sapiens);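 note: mean inhibition of MSK1 reported, from a GSK PKIS inhibitor set screen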
# Condition Details: at 0.1 µM
Metric: inhibition (%)

INSERT INTO measurements (smi, test_target, metric, reading_unit, val) VALUES
  ('Nc1ccc(C#Cc2cncnc2Nc2ccc(OCc3cccc(F)c3)c(Cl)c2)cc1', 'Ribosomal protein S6 kinase alpha-5 (Homo sapiens)', 'inhibition', '%', 1.3),
  ('CN(C)c1cc2c(Nc3ccc4c(cnn4Cc4ccccc4)c3)ncnc2cn1', 'Ribosomal protein S6 kinase alpha-5 (Homo sapiens)', 'inhibition', '%', 3.83),
  ('CN1CCN(C(=O)c2ccc(NC(=O)Nc3ccc(N(C)c4ccnc(Nc5ccc(CS(C)(=O)=O)cc5)n4)cc3)cc2)CC1', 'Ribosomal protein S6 kinase alpha-5 (Homo sapiens)', 'inhibition', '%', 1.16),
  ('N#Cc1cccc(Nc2nccc(-c3cnn4ncccc34)n2)c1', 'Ribosomal protein S6 kinase alpha-5 (Homo sapiens)', 'inhibition', '%', 3.66),
  ('O=S(=O)(CCOCc1ccc(-c2ccc3ncnc(Nc4ccc(OCc5cccc(F)c5)c(Cl)c4)c3c2)o1)c1ccccc1', 'Ribosomal protein S6 kinase alpha-5 (Homo sapiens)', 'inhibition', '%', 0.65),
  ('c1ccc(Cc2nc3ccc(Nc4ncnc5ccccc45)cc3[nH]2)cc1', 'Ribosomal protein S6 kinase alpha-5 (Homo sapiens)', 'inhibition', '%', 2.76),
  ('Oc1cccc(-c2nc(-c3ccccc3)[nH]c2-c2ccncc2)c1', 'Ribosomal protein S6 kinase alpha-5 (Homo sapiens)', 'inhibition', '%', 3.05),
  ('NC(=O)c1sc(-n2cnc3ccccc32)cc1OCc1ccccc1Br', 'Ribosomal protein S6 kinase alpha-5 (Homo sapiens)', 'inhibition', '%', 8.61),
  ('NS(=O)(=O)c1ccc(-c2cc3ccncc3cc2OCc2ccccc2)cc1', 'Ribosomal protein S6 kinase alpha-5 (Homo sapiens)', 'inhibition', '%', 1.89),
  ('Cc1ccc(NC(=O)CC2CC2)cc1-c1ccc(C(=O)NCC2CC2)cc1', 'Ribosomal protein S6 kinase alpha-5 (Homo sapiens)', 'inhibition', '%', 8.94),
  ('O=C1Nc2ccccc2/C1=C/Nc1ccc2[nH]c(=O)[nH]c2c1', 'Ribosomal protein S6 kinase alpha-5 (Homo sapiens)', 'inhibition', '%', 3.99),
  ('Cc1ccc(Nc2ccnc(Nc3cccc(C(N)=O)c3)n2)cc1O', 'Ribosomal protein S6 kinase alpha-5 (Homo sapiens)', 'inhibition', '%', 1.2),
  ('COC(=O)c1cncc(/C=C/c2c(C)cc(O)cc2C)c1', 'Ribosomal protein S6 kinase alpha-5 (Homo sapiens)', 'inhibition', '%', 3.93),
  ('ON=C1CCc2cc(-c3nc(C4CCNCC4)[nH]c3-c3ccncc3)ccc21', 'Ribosomal protein S6 kinase alpha-5 (Homo sapiens)', 'inhibition', '%', -0.09),
  ('CN(C)C(=O)O[C@H]1CN[C@H](C#Cc2cc3ncnc(Nc4ccc(OCc5cccc(F)c5)c(Cl)c4)c3s2)C1', 'Ribosomal protein S6 kinase alpha-5 (Homo sapiens)', 'inhibition', '%', 2.4),
  ('NC(=O)c1cccc(Nc2nccc(Nc3cccc(F)c3)n2)c1', 'Ribosomal protein S6 kinase alpha-5 (Homo sapiens)', 'inhibition', '%', 1.48),
  ('Nc1nccc(-c2c(-c3ccc(F)cc3)ncn2CCCN2CCOCC2)n1', 'Ribosomal protein S6 kinase alpha-5 (Homo sapiens)', 'inhibition', '%', 6.47);
